# System: ALOMY
# test-details: Pre-emergence herbicidal action against ALOMY
# Assay type: in vivo, Alopecurus myosuroides
# experimental-conditions: 80 g/ha, pre-emergence, scored visually after 3 weeks vs untreated controls (100% = plants have died, 0% = like control plants)
property-name: Pre-emergence action against ALOMY (herbicidal activity) (%)
Use % as the unit, but write only the number.

Request: Report Pre-emergence action against ALOMY (herbicidal activity) for Cn1nnnc1NC(=O)c1ccc(C(F)(F)F)c(C(=O)NCC2CC2)c1C1CC1
Result: 90

Request: Report Pre-emergence action against ALOMY (herbicidal activity) for CCNC(=O)c1c(Br)ccc(C(=O)Nc2nnc(C)o2)c1Cl
Result: 90

Request: Report Pre-emergence action against ALOMY (herbicidal activity) for CCc1c(C(=O)Nc2nnnn2C)ccc(C(F)(F)F)c1C(=O)NC(C)C1CC1 (stereo not drawn)
Result: 90

Request: Report Pre-emergence action against ALOMY (herbicidal activity) for Cn1nnnc1NC(=O)c1ccc(C(F)(F)F)c(C(=O)NC2CCC2)c1Cl
Result: 90

Request: Report Pre-emergence action against ALOMY (herbicidal activity) for CCn1nnnc1NC(=O)c1ccc(C(F)(F)F)c(C(=O)NC)c1C1CC1
Result: 80

Request: Report Pre-emergence action against ALOMY (herbicidal activity) for CCn1nnnc1NC(=O)c1ccc(C(F)F)c(C(=O)NC(C)C2CC2)c1SC (stereo not drawn)
Result: 80

Request: Report Pre-emergence action against ALOMY (herbicidal activity) for CCn1nnnc1NC(=O)c1ccc(C(F)(F)F)c(C(=O)NC2CCC2)c1Cl
Result: 80

Request: Report Pre-emergence action against ALOMY (herbicidal activity) for Cc1nnc(NC(=O)c2ccc(C(F)F)c(C(=O)NC(C)C)c2Cl)o1
Result: 90

Request: Report Pre-emergence action against ALOMY (herbicidal activity) for CCn1nnnc1NC(=O)c1ccc(Br)c(C(=O)NC(C)C)c1Cl
Result: 90

Request: Report Pre-emergence action against ALOMY (herbicidal activity) for COCCNC(=O)c1c(C(F)F)ccc(C(=O)Nc2nnnn2C)c1Cl
Result: 90

Request: Report Pre-emergence action against ALOMY (herbicidal activity) for CCn1nnnc1NC(=O)c1ccc(C(F)(F)F)c(C(=O)NCC(F)(F)F)c1Cl
Result: 90

Request: Report Pre-emergence action against ALOMY (herbicidal activity) for CCNC(=O)c1c(C(F)F)ccc(C(=O)Nc2nnnn2CC)c1C
Result: 90

Request: Report Pre-emergence action against ALOMY (herbicidal activity) for CCn1nnnc1NC(=O)c1ccc(C(F)(F)F)c(C(=O)NCC(F)(F)F)c1C
Result: 80

Request: Report Pre-emergence action against ALOMY (herbicidal activity) for CCn1nnnc1NC(=O)c1ccc(C(F)(F)F)c(C(=O)NC(C)C2CC2)c1Cl (stereo not drawn)
Result: 90

Request: Report Pre-emergence action against ALOMY (herbicidal activity) for CCCNC(=O)c1c(C(F)F)ccc(C(=O)Nc2nnc(C)o2)c1Cl
Result: 80

Request: Report Pre-emergence action against ALOMY (herbicidal activity) for CCn1nnnc1NC(=O)c1ccc(C(F)(F)F)c(C(=O)NCCOC)c1Cl
Result: 90

Request: Report Pre-emergence action against ALOMY (herbicidal activity) for CCn1nnnc1NC(=O)c1ccc(C(F)F)c(C(=O)NCCOC)c1C
Result: 80

Request: Report Pre-emergence action against ALOMY (herbicidal activity) for COCCNC(=O)c1c(C(F)(F)F)ccc(C(=O)Nc2nnnn2C)c1Cl
Result: 90

Taken from patent US12655116B2.
